Each recorded value in this set is attributed to PubChem BioAssay (NCI).

Would you mind telling me the reported TGI of each entry?
# System: ACHN renal
# assay method text: NCI tumour cell line growth inhibition, 48 h

Record request: TGI value, item CCCCC[C@H]1C/C=C2/C(=O)C=C[C@@H]2C/C=C\CCCC(=O)O[C@@H](CCCCC)C/C=C2/C(=O)C=C[C@@H]2C/C=C\CCCC(=O)O1 0.755 µM

Record request: TGI value, item CC(=O)O[C@H]1C(=O)[C@@]2(C)[C@H]([C@H](OC(=O)c3ccccc3)[C@]3(O)C[C@H](OC(=O)[C@H](O)[C@@H](NC(=O)c4cccc(N=[N+]=[N-])c4)c4ccccc4)C(C)=C1C3(C)C)[C@]1(OC(C)=O)CO[C@@H]1C[C@@H]2O > 25 µM

Record request: TGI value, item CN1CCN(CCOc2ccc(-c3cnc4c(-c5ccc(C(F)(F)F)cc5)cnn4c3)cc2)CC1 2.91 µM

Record request: TGI value, item O=c1cccccc1[O-].O=c1cccccc1[O-].[O]=[U+2]=[O] 48 µM

Record request: TGI value, item O=C(CCc1ccc(O)c(O)c1)NCCc1cc(O)cc(O)c1 > 100 µM

Record request: TGI value, item O=C(c1ccc(Cl)cc1)N(C(=O)N1CCC(c2ccccc2)CC1)c1ccccc1 > 100 µM

Record request: TGI value, item CCOC(=O)c1c2c(n(Cc3ccc(Cl)cc3Cl)c1C)-c1nc[nH]c1C(=O)C2=O 16.1 µM

Record request: TGI value, item CN(C)C(=S)/N=c1\ssc(=S)n1Cc1cccnc1 > 100 µM

Record request: TGI value, item N#CC(=C1CCN(CCCC(=O)c2ccc(F)cc2)CC1)c1ccccc1 > 100 µM

Record request: TGI value, item CC(C)=CCC/C(=C/CC/C(=C\CCc1ccoc1)C(=O)O)C(=O)O > 100 µM

Record request: TGI value, item NCCCCc1cc(O)c2c(c1O)C(=O)c1ccccc1C2=O 25.4 µM

Record request: TGI value, item COc1c(O)cc2oc(-c3ccc(O)cc3)cc(=O)c2c1O > 100 µM

Record request: TGI value, item C[C@]12CCC(=O)C=C1CC[C@@H]1C2CC[C@]2(C)Nc3c(cnn3-c3ccccc3)CC12 (some centres not stated) > 100 µM

Record request: TGI value, item CCOC(=O)/C=C/n1c2ccccc2c(=O)c2ccccc21 > 100 µM

Record request: TGI value, item Cc1nn(C(=O)c2ccc(Cl)cc2)c2c1C(c1ccccc1[N+](=O)[O-])SC(N)=N2 (configuration not stated) > 10 µM

Record request: TGI value, item O=C1C(N2CC2)=C(N2CC2)C(=O)C(N2CC2)=C1N1CC1 0.351 µM

Record request: TGI value, item CCOC(=O)c1cn2c(n1)sc1c(Cl)c(Cl)ccc12 > 100 µM

Record request: TGI value, item NC(=O)c1ccccc1Nc1ccc2nnc(-c3ccncc3)n2n1 20.7 µM

Record request: TGI value, item C/C=C\C(CC(=O)NCCC1CN(S(=O)(=O)c2ccc(C)cc2)c2ccccc21)CC(=O)OC (configuration not stated) > 100 µM

Record request: TGI value, item CCn1cc(C(=O)N/N=C/c2ccccc2)c(=O)c2cc(F)c(N3CCNC(C)C3)c(F)c21 (configuration not stated) 3.12 µM

Record request: TGI value, item CC1CC[C@@]2(OC1)OC1C[C@H]3[C@@H]4CC=C5CC(OC6OC(CO)C(OC7OC(CO)C(O)C(OC8OCC(O)C(O)C8O)C7OC7OC(CO)C(O)C(O)C7O)C(O)C6O)CCC5(C)[C@H]4CCC3(C)C1[C@@H]2C (some centres not stated) 10.6 µM

Record request: TGI value, item COc1nc(C#CC2(O)CCCCC2)nc(OC)n1 21.9 µM

Record request: TGI value, item Clc1ccc(N=Nc2nc3ccccc3nc2N=Nc2ccc(Cl)cc2Cl)c(Cl)c1 > 100 µM

Record request: TGI value, item COc1cc(OC)nc(-n2c(N)c(C#N)c3ccc([N+](=O)[O-])cc3c2=O)n1 > 100 µM

Record request: TGI value, item O=C1c2cccc(NCCN=Cc3cc([N+](=O)[O-])ccc3O)c2C(=O)c2c(NCCN=Cc3cc([N+](=O)[O-])ccc3O)cccc21 > 100 µM

Record request: TGI value, item O=S(=O)(Nc1ccc(Br)c(Cl)c1)c1ccc(-c2cnc(C3CC3)o2)cc1 18.2 µM

Record request: TGI value, item Cc1nn(C(=O)Cc2ccccc2)c2c1C(c1ccc(O)cc1O)SC(N)=N2 (configuration not stated) > 100 µM

Record request: TGI value, item C=CCOC(=O)NC1C(OC(C)[C@@H](NC(=O)OCc2ccccc2)C(=O)OC(C)(C)C)OC(COC(C)=O)C(OC(C)=O)C1OC(C)=O (some centres not stated) > 100 µM

Record request: TGI value, item COc1cc2c(cc1OC)C(=O)/C(=C/c1ccc(Cl)cc1)CC2 > 10 µM

Record request: TGI value, item CC[C@]1(Cc2ccc(OC)c(OC)c2)C=[N+]([O-])O[C@H](OC2CCCC2(c2ccccc2)c2ccccc2)[C@@H]1OC(C)=O (some centres not stated) 10.2 µM

Record request: TGI value, item O=C1c2ccccc2OP(=O)(OCC(F)(F)F)OC1(C(F)(F)F)C(F)(F)F (configuration not stated) > 100 µM

Record request: TGI value, item CC1=NN(c2nc(N)nc(CSc3nc4n(c(=S)n3)CCN4)n2)C(C)(C)C1 > 100 µM

Record request: TGI value, item CCN(Cc1ccc(F)cc1)c1ccc(CO)c(F)c1 > 100 µM

Record request: TGI value, item CC(=O)NNc1nc(C)c(C(=O)/C=C/c2ccccc2Cl)s1 > 100 µM

Record request: TGI value, item COc1ccc2c(=O)cc(-c3ccncc3)oc2c1OC > 100 µM

Record request: TGI value, item CC1CC2OC(=O)C(C)C2CC2(C)C(OC3OC(CO)C(O)C(O)C3O)OCCC12 (configuration not stated) > 100 µM

Record request: TGI value, item COc1ccc(CNC(=O)NCn2cc(-c3ccccc3)nn2)cc1 > 100 µM
